Sourced from the supplement of paper PMC10065799

# target-under-test: FGFR3 (UniProt P22607)
# Sequence (P22607 whole entry, looked up): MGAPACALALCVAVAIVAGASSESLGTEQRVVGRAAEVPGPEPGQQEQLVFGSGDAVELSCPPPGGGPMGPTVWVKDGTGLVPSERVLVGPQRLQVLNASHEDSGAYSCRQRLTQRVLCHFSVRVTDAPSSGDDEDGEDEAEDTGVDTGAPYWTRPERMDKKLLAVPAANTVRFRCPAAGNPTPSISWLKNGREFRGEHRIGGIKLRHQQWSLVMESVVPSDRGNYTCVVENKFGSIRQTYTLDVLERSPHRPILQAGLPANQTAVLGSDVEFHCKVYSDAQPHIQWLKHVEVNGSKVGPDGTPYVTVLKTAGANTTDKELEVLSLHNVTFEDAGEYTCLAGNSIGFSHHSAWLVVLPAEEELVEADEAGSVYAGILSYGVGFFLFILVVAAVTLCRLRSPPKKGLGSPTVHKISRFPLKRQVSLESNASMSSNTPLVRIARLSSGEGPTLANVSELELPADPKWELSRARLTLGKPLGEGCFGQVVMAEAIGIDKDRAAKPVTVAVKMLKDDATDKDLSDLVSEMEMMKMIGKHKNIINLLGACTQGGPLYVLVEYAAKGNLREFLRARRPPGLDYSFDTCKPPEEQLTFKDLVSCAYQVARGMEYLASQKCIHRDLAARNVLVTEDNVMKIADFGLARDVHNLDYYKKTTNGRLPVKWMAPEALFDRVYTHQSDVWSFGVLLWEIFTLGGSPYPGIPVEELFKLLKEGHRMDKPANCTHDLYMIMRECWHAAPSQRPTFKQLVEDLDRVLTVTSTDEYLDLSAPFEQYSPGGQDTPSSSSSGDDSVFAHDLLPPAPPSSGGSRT
# test-details: phosphorylation enrichment, bacterial display (enrichment ratio); higher = better substrate or ligand; peptides without Tyr show the background;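 further: 11-residue human phosphosite peptides and single-mutation variants displayed on the E. coli surface, counted by deep sequencing, each peptide's frequency after selection divided by its frequency in the unselected input library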;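 further: frequency after pTyr selection over input frequency; kinase dosed for 20-30% of maximal phosphorylation in three min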
Note to self: values exactly at 0.6 are met. So phosphorylation enrichment at or above 0.6 is met, below is not met.

Would you please look over these solved cases?
record-sequence	answer-label
EDKFMYLEFPQ [PTEN_Y240_F241L]	met
EEQKKYYNATK [SCN5A_Y1494_M1498T]	not met
ANRNVYEVEPT [MEGF10_Y1075]	not met
SIKDKYVTAVY [KCNH2_Y611_L615V]	met
GLDGSYLLRFS [SH2D1A_Y29_D33Y_YF]	not met

input: Say whether IHTEFYDGLFP [BCR_Y561_K558T] shows phosphorylation enrichment of 0.6 or more.
output: met

input: Say whether FSMGCYEISLE [HMGCL_Y198_G203E_YF] shows phosphorylation enrichment of 0.6 or more.
output: met

====

# target-under-test: Fes (UniProt P07332)
# Sequence (P07332 whole entry, looked up): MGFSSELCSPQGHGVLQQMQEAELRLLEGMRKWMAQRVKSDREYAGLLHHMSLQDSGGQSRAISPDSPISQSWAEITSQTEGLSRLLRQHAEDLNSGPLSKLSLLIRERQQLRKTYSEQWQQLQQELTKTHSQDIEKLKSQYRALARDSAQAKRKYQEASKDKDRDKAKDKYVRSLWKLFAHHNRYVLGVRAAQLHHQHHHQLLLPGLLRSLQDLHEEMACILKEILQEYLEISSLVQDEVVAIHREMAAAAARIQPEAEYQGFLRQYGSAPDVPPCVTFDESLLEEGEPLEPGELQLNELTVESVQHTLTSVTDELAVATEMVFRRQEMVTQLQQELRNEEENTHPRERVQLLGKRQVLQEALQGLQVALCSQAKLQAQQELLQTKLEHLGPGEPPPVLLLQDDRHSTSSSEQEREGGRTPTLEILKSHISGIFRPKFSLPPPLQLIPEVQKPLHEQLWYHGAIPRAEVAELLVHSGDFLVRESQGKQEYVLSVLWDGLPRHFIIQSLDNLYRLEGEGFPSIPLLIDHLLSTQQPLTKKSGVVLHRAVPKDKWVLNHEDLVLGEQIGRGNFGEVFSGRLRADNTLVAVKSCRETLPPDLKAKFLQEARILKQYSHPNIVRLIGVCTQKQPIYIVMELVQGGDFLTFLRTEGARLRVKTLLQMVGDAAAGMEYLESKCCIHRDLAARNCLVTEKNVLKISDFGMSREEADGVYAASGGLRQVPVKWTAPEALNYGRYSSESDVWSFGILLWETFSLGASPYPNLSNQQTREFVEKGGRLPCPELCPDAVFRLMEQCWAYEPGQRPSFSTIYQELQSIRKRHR
# test-details: phosphorylation enrichment, bacterial display (enrichment ratio); higher = better substrate or ligand; peptides without Tyr show the background
observable: phosphorylation enrichment

record-sequence	recorded-result
FSKTQYNQVPR [CXADR_Y318_S323R_YF]	0.502
ALADKYHGGGG [HBB_Y146_H144D]	0.517
HHIDFYKKTTN [FGFR1_Y654_YF]	1.19
ACCLLYRGDVV [TUBA4A_Y319]	0.889
QPTPGYEVGQR [TSC2_Y1788_E1783Q]	0.759

For record TAGFIYEKWEI [TEC_Y360_S359I] the listed phosphorylation enrichment is 1.72

For record RKMSSYAFFVQ [HMGB1_Y16_G11R] the listed phosphorylation enrichment is 1.58

For record VKPENYRRLDI [VHL_Y175] the listed phosphorylation enrichment is 0.48

====

# target-under-test: FGFR3 (UniProt P22607)
# test-details: phosphorylation enrichment, bacterial display (enrichment ratio); higher = better substrate or ligand; peptides without Tyr show the background
Note to self: values exactly at 0.7 are t. So phosphorylation enrichment at or above 0.7 is t, below is f.

input: Say whether RALRHYFKLNI [ETV6_Y401_YF] shows phosphorylation enrichment of 0.7 or more.
output: f

====

# target-under-test: EPHB1 (UniProt P54762)
# Sequence (P54762 whole entry, looked up): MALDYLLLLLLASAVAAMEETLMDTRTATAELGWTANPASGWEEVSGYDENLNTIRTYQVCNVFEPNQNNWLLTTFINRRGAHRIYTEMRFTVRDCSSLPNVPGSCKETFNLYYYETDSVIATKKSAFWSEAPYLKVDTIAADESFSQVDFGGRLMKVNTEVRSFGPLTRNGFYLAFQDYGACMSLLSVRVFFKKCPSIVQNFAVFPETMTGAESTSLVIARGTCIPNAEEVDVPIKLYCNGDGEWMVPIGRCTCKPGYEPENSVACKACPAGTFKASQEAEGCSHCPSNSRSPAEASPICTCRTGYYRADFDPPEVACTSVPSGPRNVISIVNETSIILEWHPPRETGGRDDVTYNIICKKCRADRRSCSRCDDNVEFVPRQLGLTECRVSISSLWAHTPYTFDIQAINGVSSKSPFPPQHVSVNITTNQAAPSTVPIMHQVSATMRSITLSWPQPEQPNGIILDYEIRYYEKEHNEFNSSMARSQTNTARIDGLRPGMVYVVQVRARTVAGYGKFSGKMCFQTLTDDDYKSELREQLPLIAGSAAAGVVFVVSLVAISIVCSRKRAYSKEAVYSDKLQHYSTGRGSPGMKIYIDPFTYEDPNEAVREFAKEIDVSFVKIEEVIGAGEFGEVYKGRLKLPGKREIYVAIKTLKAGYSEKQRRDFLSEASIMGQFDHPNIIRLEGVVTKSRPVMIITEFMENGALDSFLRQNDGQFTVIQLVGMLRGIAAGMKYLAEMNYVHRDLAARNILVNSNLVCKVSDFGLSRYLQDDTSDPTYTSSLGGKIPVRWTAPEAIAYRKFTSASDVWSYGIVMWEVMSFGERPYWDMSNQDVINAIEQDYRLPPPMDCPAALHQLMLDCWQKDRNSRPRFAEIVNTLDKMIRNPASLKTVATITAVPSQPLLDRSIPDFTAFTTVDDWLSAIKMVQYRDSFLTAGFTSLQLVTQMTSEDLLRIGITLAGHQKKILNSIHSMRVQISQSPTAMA
# test-details: phosphorylation enrichment, bacterial display (enrichment ratio); higher = better substrate or ligand; peptides without Tyr show the background
// values below are reported phosphorylation enrichment

record-sequence	phosphorylation enrichment
CNPRRYPVLMS [OR2T1_Y182_L180R]	0.49
VLSIDYYFPPQ [AR_Y552_P549S]	3.13
NLNGKCNKPRA [ANGPTL3_Y417_Y417C]	0.322
PVQAAYQKVVD [HBB_Y131_A136D]	0.493
KILGTYYETGS [PAX2_Y72_R71T]	0.66

For record MHLRQYKLLGG [GNAS_Y391_E392K] the listed phosphorylation enrichment is 0.534

For record QLQVFYATLDQ [MIPEP_Y579] the listed phosphorylation enrichment is 1.09

For record DLDLTSIFPNI [PTEN_Y27_Y27S_YF] the listed phosphorylation enrichment is 0.402

For record MASISYDYCRV [BST2_Y6_T4I] the listed phosphorylation enrichment is 4.17

For record KTTSGYAGGLS [KRT8_Y419] the listed phosphorylation enrichment is 0.332

For record FSEVRYVKEPF [HIPK4_Y170_YF] the listed phosphorylation enrichment is 0.403

For record SVTWTYSPALN [TP53_Y126_C124W] the listed phosphorylation enrichment is 0.569

For record TIEDSYRKQVV [KRAS_Y40] the listed phosphorylation enrichment is 0.383

For record TIMTDYNPNFC [ALK_Y1092_YF] the listed phosphorylation enrichment is 0.498

For record ACCLLYHGDVV [TUBA4A_Y319_R320H] the listed phosphorylation enrichment is 0.551

For record EFISEFCGEII [EZH2_Y641_Y641F] the listed phosphorylation enrichment is 0.566

For record RMDGTYACSYT [FLNB_Y704] the listed phosphorylation enrichment is 0.876

For record GVASDYKCIDP [VPS13B_Y1991] the listed phosphorylation enrichment is 0.739

For record KMKGDYYRSLA [YWHAG_Y130_Y133S] the listed phosphorylation enrichment is 0.369

For record RLLVFYPWTQR [HBB_Y36_V35F] the listed phosphorylation enrichment is 0.794

For record SVNCTYSPALN [TP53_Y126_T123N] the listed phosphorylation enrichment is 0.654

For record IPPRRYFRSGV [STAMBP_Y36] the listed phosphorylation enrichment is 0.531

For record ETAENYLGYTA [HSPA9_Y181_H184Y] the listed phosphorylation enrichment is 0.674

For record EVRAQYEEIAQ [KRT76_Y361] the listed phosphorylation enrichment is 0.697

For record SEDSEYFRAFE [CASQ2_Y178_K180R_YF] the listed phosphorylation enrichment is 0.633

For record "GFITSYREEEQ" the listed phosphorylation enrichment is 0.63

For record GGSSPYSRRLP [CDK13_Y351] the listed phosphorylation enrichment is 0.327

For record DPLASYLDKVR [KRT10_Y160_R156P] the listed phosphorylation enrichment is 0.413

For record TLPAFYMENFS [GLB1_Y552_G554E] the listed phosphorylation enrichment is 1.25
